- ASSAY TARGET: thrombin (Homo sapiens)
*1 amine or outer side, *2 acyl side, *3 side chain or, on linkers, in order; H or OH if unused. Where a SMILES comes first, the peptide text is derived from it. [ ]: non-standard residue; d: D form. X2 = CCCCN([C@@H](CCCNC(=N)N)C(=O)[*:2])[*:1]; Leu(ol) = CC(C)C[C@H](N)CO
METRIC NAME: IC50 (µM)
# value in µM; strip the unit string

(Q) Lab note: need IC50 for CC[C@H](C)[C@H](NC(=O)[C@H](Cc1ccc(O)cc1)NC(=O)[C@@H]1CCCN1C(=O)[C@H](CCCNC(=N)N)NC(=O)[C@H](CCCNC(=N)N)NC(C)=O)C(=O)N[C@@H](CC(C)C)C(N)=O [Peptide No. 32] on thrombin (Homo sapiens), anyone have it?
(A) 2.2

(Q) Lab note: need IC50 for CC[C@H](C)[C@H](NC(=O)[C@H](Cc1ccc(O)cc1)NC(=O)[C@@H]1CCCN1C(=O)[C@H](CCCNC(=N)N)NC(=O)[C@H](CCCNC(=N)N)NC(C)=O)C(=O)N[C@H](CO)CC(C)C [Peptide No. 31] on thrombin (Homo sapiens), anyone have it?
(A) 2.3

(Q) Lab note: need IC50 for CC[C@H](C)[C@H](NC(=O)[C@H](Cc1ccc(O)cc1)NC(=O)[C@@H]1CCCN1C(=O)[C@H](CCCNC(=N)N)NC(=O)CCCCNC(=N)N)C(=O)N[C@@H](CC(C)C)C(=O)O [Peptide No. 1] on thrombin (Homo sapiens), anyone have it?
(A) 2.5

(Q) Lab note: need IC50 for CCCCN[C@@H](CCCNC(=N)N)C(=O)N[C@@H](CCCNC(=N)N)C(=O)N1CCC[C@H]1C(=O)N[C@@H](Cc1ccc(O)cc1)C(=O)N[C@H](C(=O)N[C@H](CO)CC(C)C)[C@@H](C)CC [Peptide No. 33] (H-[X2]RPYI[Leu(ol)]) on thrombin (Homo sapiens), anyone have it?
(A) 2.3
